test system: antibody negative serums; test: False positive reactions of modified RBCs with antibody negative serums/plasma; type: cell-based, human; set-up: key: 0 or ‘−’ no agglutination; 0 or ‘−’ no agglutination; 1+ or 3=very weak agglutination; 1+ or 3=very weak agglutination; 2+ or 5=weak agglutination; 2+ or 5=weak agglutination; 3+ or 8=moderate strong agglutination; 3+ or 8=moderate strong agglutination; 4+ or 10/12=strong agglutination; 4+ or 10/12=strong agglutination; 4+ or 10/12=strong agglutination; conditions: blood donor plasma; construct 50 μg/ml (2 hours, 37° C.)
No end group written: not given here.
Record form. Attribute: Reaction score BioVue AHG, PAC sample 48. Fill in for each entry.

Please state Reaction score BioVue AHG, PAC sample 48 for every substance in the list that follows.
1. M22: DOPE peptide-lipid construct: MUTK peptide SQTNDKHKRD, leader c, spacer CMG(2) (SQTNDKHKRDC; also: DOPE peptide-lipid construct via leader Cys, spacer CMG(2))
2. M37: DOPE peptide-lipid construct: MUTK peptide TNDKHKRDTYP, leader c, spacer CMG(2) (TNDKHKRDTYPC; also: DOPE peptide-lipid construct via leader Cys, spacer CMG(2))
3. M34: DOPE peptide-lipid construct: MUTK peptide SSQTNDKHKR, leader c, spacer CMG(2) (SSQTNDKHKRC; also: DOPE peptide-lipid construct via leader Cys, spacer CMG(2))
4. M36: DOPE peptide-lipid construct: MUTK peptide SQTNDKHKRDT, leader c, spacer CMG(2) (SQTNDKHKRDTC; also: DOPE peptide-lipid construct via leader Cys, spacer CMG(2))
5. M40: DOPE peptide-lipid construct: Hil peptide EEETGETGQL, leader c, spacer CMG(2) (EEETGETGQLC; also: DOPE peptide-lipid construct via leader Cys, spacer CMG(2))

-- reply
[0, 0, 3, 5, 0]

---

test system: antibody negative serums; assay: False positive reactions of modified RBCs with antibody negative serums/plasma; type: cell-based, human; set-up: key: 0 or ‘−’ no agglutination; 0 or ‘−’ no agglutination; 1+ or 3=very weak agglutination; 1+ or 3=very weak agglutination; 2+ or 5=weak agglutination; 2+ or 5=weak agglutination; 3+ or 8=moderate strong agglutination; 3+ or 8=moderate strong agglutination; 4+ or 10/12=strong agglutination; 4+ or 10/12=strong agglutination; 4+ or 10/12=strong agglutination; settings: larger series = 102; cells modified at 50 μg/ml, 2 hour 37° C.; BioVue AHG cards
No end group written: not given here.
readout type: agglutination score, false positive serum T92
Numbers only.

Worked cases, agglutination score, false positive serum T92 given:
# substance, target, data value
records = [
    ("M26: DOPE peptide-lipid construct: Mur peptide YPAHTANEV, leader c, spacer CMG(2) (YPAHTANEVC; also: DOPE peptide-lipid construct via leader Cys, spacer CMG(2))", "antibody negative serums", 12),
    ("M29: DOPE peptide-lipid construct: Mur peptide PAHTANEVS, leader c, spacer CMG(2) (PAHTANEVSC; also: DOPE peptide-lipid construct via leader Cys, spacer CMG(2))", "antibody negative serums", 8),
    ("M17: DOPE peptide-lipid construct: Mur peptide TYPAHTANEV, leader c, spacer CMG(2) (TYPAHTANEVC; also: DOPE peptide-lipid construct via leader Cys, spacer CMG(2))", "antibody negative serums", 12),
]

-- ask Name the recorded agglutination score, false positive serum T92 of the item M31: DOPE peptide-lipid construct: Mur peptide YPAHTANEVS, leader c, spacer CMG(2) (YPAHTANEVSC; also: DOPE peptide-lipid construct via leader Cys, spacer CMG(2)) in your answer.
-- reply 12

The origin of these recorded values is patent US10919941B2.
